Data provenance is ChEMBL document CHEMBL4619753.

- Tested on: HeLa
- Test protocol: cells
- Experimental setup: Homo sapiens, 96 h
- Description: Antiproliferative activity against human HeLa cells after 96 hrs by crystal violet staining based assay
pIC50: −log10 of the molar value.

Smi	Assayed system	Qualifier sign	pIC50
COc1cc(S(C)(=O)=O)ccc1Nc1nc2ccc(-c3ccc(NC(=O)Cc4ccc(F)cc4)cc3)cn2n1	HeLa	=	6.61
COc1cc(S(C)(=O)=O)ccc1Nc1nc2ccc(-c3ccc(NC(=O)C4(c5ccc(F)cc5)CC4)cc3)cn2n1	HeLa	<	5.00
COc1cc(C(=O)N2CCOCC2)ccc1Nc1nc2ccc(-c3ccc(NC(=O)Cc4ccc(F)cc4)cc3)cn2n1	HeLa	=	6.85
COc1ccccc1Nc1nc2ccc(-c3ccc(NC(=O)Cc4ccccc4)cc3)cn2n1	HeLa	=	5.64
O=C(Cc1ccc(F)cc1)Nc1ccc(-c2ccc3nc(Nc4ccc(C(=O)N5CCOCC5)cc4)nn3c2)cc1	HeLa	=	6.14
COc1ccccc1Nc1nc2ccc(-c3cc(C)c(O)c(C)c3)cn2n1	HeLa	=	5.23
COc1cc(N2CCOC2=O)ccc1Nc1nc2ccc(-c3ccc(NC(=O)Cc4ccc(F)cc4)cc3)cn2n1	HeLa	=	6.92

----------
- Test protocol: Dose normalized AUC in Wistar rat at 0.2 to 1 mg/kg, po measured up to 24 hrs by HPLC-MS-MS analysis
- Type: ADME, organism-based
- Experimental setup: in vivo
Recorded endpoint: log10 of AUC/dose (log10 of the value in kg·h/L)

Smi	log10 of AUC/dose
CNC(=O)Nc1ccc(-c2cnc3c(NCC(C)C)nccn23)cc1	0.69
C=C(c1ccc(OC)c(F)c1)c1cc(NCCC(F)(F)F)c2ncc(-c3ccc(C(=O)NC4CC4)c(C)c3)n2n1	-0.33
COc1cc(N2CCOC2=O)ccc1Nc1nc2ccc(-c3ccc(NC(=O)Cc4ccc(F)cc4)cc3)cn2n1	0.28
COc1cc(C(=O)N2CC3(COC3)C2)ccc1Nc1nc2ccc(-c3ccc(NC(=O)Cc4ccc(F)cc4)cc3)cn2n1	-1.31
COc1cc(S(C)(=O)=O)ccc1Nc1nc2ccc(-c3ccc(NC(=O)[C@H](C)c4ccc(F)cc4)cc3)cn2n1	0.52
COc1ccccc1Nc1nc2ccc(-c3ccc(NC(=O)Cc4ccccc4)cc3)cn2n1	-1.18
Cc1cc(-c2cnc3c(NCC(C)C)nccn23)ccc1C(=O)NC1CC1	-0.66
COc1cc(C(=O)N2CCOCC2)ccc1Nc1nc2ccc(-c3ccc(NC(=O)Cc4ccc(F)cc4)cc3)cn2n1	-0.09

----------
- Test protocol: Dose normalized AUC in Wistar rat at 0.2 to 1 mg/kg, po measured up to 24 hrs by HPLC-MS-MS analysis
- Type: ADME, organism-based
- Experimental setup: in vivo

Smi	Unit name	AUC/dose
COc1cc(C(=O)N2C[C@@H]3C[C@H]2CO3)ccc1Nc1nc2ccc(-c3ccc(NC(=O)Cc4ccc(F)cc4)cc3)cn2n1	kg·h/L	0.23
Cc1cc(-c2cnc3c(NCCC(F)(F)F)cc(C4(c5cc(F)ccc5O)CC4)nn23)ccc1C(=O)NC1CC1	kg·h/L	0.76
COc1cc(S(C)(=O)=O)ccc1Nc1nc2ccc(-c3ccc(NC(=O)Cc4ccc(F)cc4)cc3)cn2n1	kg·h/L	0.98
COc1ccc(Oc2cc(NCCC(F)(F)F)c3ncc(-c4ccc(C(=O)NC5CC5)c(C)c4)n3n2)c(F)c1F	kg·h/L	2.4
N#Cc1ccccc1Nc1nc2ccc(-c3ccc(NC(=O)Cc4ccccc4)cc3)cn2n1	kg·h/L	0.084
COc1cc(N2CCOC2=O)ccc1Nc1nc2ccc(-c3ccc(NC(=O)[C@H](C)c4ccc(F)cc4)cc3)cn2n1	kg·h/L	4.2
N#Cc1ccccc1Nc1nc2ccc(-c3ccc(NC(=O)Cc4ccc(F)cc4)cc3)cn2n1	kg·h/L	0.066
COc1cc(C(=O)N2CC(F)C2)ccc1Nc1nc2ccc(-c3ccc(NC(=O)[C@H](C)c4ccc(F)cc4)cc3)cn2n1	kg·h/L	1.8
